For each of the binders below, state its pKd.
targetDesc: Hfq wt (Salmonella, UniProt P0A1R0 1-102)
protocolDescription: EMSA; two nonspecific sites (Kns); 24 mM Tris-HCl pH 7.5, 50 mM NaCl, 50 mM NH4Cl, 50 mM KCl, 0.5 mM EDTA, 2 mM MgCl2, 5% glycerol, room temperature, 1 h; 6% native gel in 1x THEM2
measurementSetup: protein: recombinant; tags: C-terminal His6; chain copies: 6; label: 5'-32P
Scale for pKd: -log10 of concentration given in mol/L; no unit attached.

Task: Which measured pKd value corresponds to ompD-187 ARN-2 (structured_RNA) RNA: GCCAUUGACAAACGCCUCGUUUAACAAUGGUUGUUGAUACACGCUAAGAAAAUUAUAAGGAUUAUUAAAAUGAAACUUAAGUUAGUGGCAGUGGCAGUGACUUCCCUGUUGGCAGCAGGCGUUGUAAAUGCAGCCGAGGUAUAUAACAAAGACGGCAAUAAACUGGAUCUGUACGGUAAAGUUCACG ?
Result: 8.66

Task: Which measured pKd value corresponds to ompD-187 ARN-5 (structured_RNA) RNA: GCCAUUGACAAACGCCUCGUUUAACAAUGGUUGAGGAAACACGCUAAGAAAAUUAUAAGGAUUAUUAAAAUGAAACUUAAGUUAGUGGCAGUGGCAGUGACUUCCCUGUUGGCAGCAGGCGUUGUAAAUGCAGCCGAGGUAUAUAACGAGGACGGCAAUAAACUGGAUCUGUACGGUAAAGUUCACG ?
Result: 8.52

Task: Which measured pKd value corresponds to ompD-187 ARN-1 (structured_RNA) RNA: GCCAUUGACAAACGCCUCGUUUCGCAAUGGUUGAGGAAACACGCUAAGAAAAUUAUAAGGAUUAUUAAAAUGAAACUUAAGUUAGUGGCAGUGGCAGUGACUUCCCUGUUGGCAGCAGGCGUUGUAAAUGCAGCCGAGGUAUAUAACAAAGACGGCAAUAAACUGGAUCUGUACGGUAAAGUUCACG ?
Result: 8.52

Task: Which measured pKd value corresponds to ompD-187 ARN-6 (structured_RNA) RNA: GCCAUUGACAAACGCCUCGUUUAACAAUGGUUGAGGAAACACGCUAAGAAAAUUAUAAGGAUUAUUAAAAUGAAACUUAAGUUAGUGGCAGUGGCAGUGACUUCCCUGUUGGCAGCAGGCGUUGUAAAUGCAGCCGAGGUAUAUAACAAAGACGGCCAUUCACUGGAUCUGUACGGUAAAGUUCACG ?
Result: 8.62

Task: Which measured pKd value corresponds to ompD-187 ARN-3 (structured_RNA) RNA: GCCAUUGACAAACGCCUCGUUUAACAAUGGUUGAGGAAACACGCUUUGAUAUUAUAAGGAUUAUUAAAAUGAAACUUAAGUUAGUGGCAGUGGCAGUGACUUCCCUGUUGGCAGCAGGCGUUGUAAAUGCAGCCGAGGUAUAUAACAAAGACGGCAAUAAACUGGAUCUGUACGGUAAAGUUCACG ?
Result: 8.54
